These entries and their values trace back to PubChem BioAssay (NCI).

assay: NCI Yeast Anticancer Drug Screen. Data for the mec2-1 strain (AID 157); conditions: S. cerevisiae mec2-1 strain, at 50.0 µM, active compounds read high
This is part of a sample that, as a whole, favours compounds with a hit. Of some 79,000 tested, about 15% had one in any assay.
Documented growth inhibition across a set of compounds
ENDPOINT NAME: growth inhibition (%)

compound="CCOC(=O)N1N=NC(c2ccccc2)C1(c1ccccc1)N1CCOCC1 (stereo unspecified)" endpoint_name="growth inhibition" measured_result=-14.8
compound="CCCCS(=O)(=O)CCC(N)P(=O)(O)O (stereo unspecified)" endpoint_name="growth inhibition" measured_result=-77.8
compound=C(=NC12CC3CC(CC(C3)C1)C2)C1CCCCC1 endpoint_name="growth inhibition" measured_result=-24.8
compound=Nc1ccn([C@H]2CO[C@@H](CO)O2)c(=O)n1 endpoint_name="growth inhibition" measured_result=-46.4
compound=O=C1c2ccccc2C(=O)c2c(O)c3c(c(O)c21)CCCC3 endpoint_name="growth inhibition" measured_result=7.55
compound="C=C(C)C(=O)OC1C[C@H](COC(C)=O)C2CC=C(CO)C2C2OC(=O)C(=C)[C@H]12 (stereo partly specified)" endpoint_name="growth inhibition" measured_result=15.1
compound="COc1cc(C(c2ccc3c(c2)OCO3)C2SCCCS2)cc(OC)c1OC (stereo unspecified)" endpoint_name="growth inhibition" measured_result=13.7
compound=C/C(=N\NC(=S)Nc1ccc(C(=O)O)cc1)c1nccc2ccccc12 endpoint_name="growth inhibition" measured_result=1.1
compound="CC(=O)c1cccc(F)c1C(C)c1ccc2ccccc2c1 (stereo unspecified)" endpoint_name="growth inhibition" measured_result=0.6
compound=CCOC(=O)c1sc(SC)nc1NC(=O)c1ccc([N+](=O)[O-])cc1 endpoint_name="growth inhibition" measured_result=-8.55
compound=CC(C)(C)c1onc2c1C(=O)c1ccccc1-2 endpoint_name="growth inhibition" measured_result=-2.55
